Provide the recorded koff for the entries that follow.
Target: SARS-CoV-2 spike (S) protein (SARS-CoV-2, UniProt P0DTC2 14-1208)
Give bare numbers, in s⁻¹.

Take each entry in turn and give its koff.
1. antibody 305 (antibody, V domains shown) VH: QVQLVESGGGVVQPGRSLRLSCAASGFTFSSYAMHWVRQAPGKGLEWVAVISYDGSNKYYADSVKGRFTISRDNSKNTLYLQMNSLRAEDTAVYYCAREQTSYDYVWGTLGAYYYYGMDVWGQGTTVTVSS VL: SSELTQDPAVSVALGQTVRITCQGDSLRSYYASWYQQKPGQAPVLVIYGKNNRPSGIPDRFSGSSSGNTASLTITGAQAEDEADYYCNSRDSSGNHLVFGGGTKLTVL
2. antibody 356 (antibody, V domains shown) VH: QVQLVQSGAEVKKPGASVKVSCKASGYTFTSYGISWVRQAPGQGLEWMGWISAYHGNTNYAQKLQGRVTMTTDTSTSTAYMELRSLRSDDTAVYYCARVGLWWLGHADAFDIWGQGTMVTVSS VL: DIQMTQSPSSLSASVGDRVTITCRASQGIRNDLGWYQQKPGKAPKRLIYAASSLQSGVPSRFSGSGSGTEFTLTISSLQPEDFATYYCLQHNSYPLTFGGGTKVEIK
3. antibody 311 (antibody, V domains shown) VH: QVQLQESGPGLVKPSETLSLTCTVSGYSISSGYYWGWIRQPPGKGLEWIGSIYHSGSTYYNPSLKSRVTISVDTSKNQFSLKLSSVTAADTAVYYCAREETLGSSWYESYIDYWGQGTLVTVSS VL: SYVLTQPPSVSVAPGKTARITCGGNNIGSKSVHWYQQKPGQAPVLVIYYDSDRPSGIPERFSGSNSGNTATLTISRVEAGDEADYYCQVWDSSSDHPRVFGGGTKLTVL
4. antibody 381 (antibody, V domains shown) VH: QVQLVESGGGVVQPGRSLRLSCAASGFTFSSYAMHWVRQAPGKGLEWVAVISYDGSNKYYADSVKGRFTISRDNSKNTLYLQMNSLRAEDTAVYYCARDRQYYDILTGYYLPTSEYYFDYWGQGTLVTVSS VL: DIQMTQSPSSVSASVGDRVTITCRASQGISSWLAWYQQKPGKAPKLLIYAASSLQSGVPSRFSGSGSGTDFTLTISSLQPEDFATYYCQQANSFPPTFGGGTKVEIK
5. antibody 358 (antibody, V domains shown) VH: QVQLVESGGGVVQPGRSLRLSCAASGFNLNSYAMHWVRQASGKGLEWVSLMSYDGSIKYYADSVKGRFTVSGDNSRNTLFLQMNSLRPDDSALYYCVRGGVSGPNSFDLWGQGTTVTVSS VL: DVVMTQSPLSLPVTLGQPASISCRSSQSLVYSDGSTYVNWFQQRPGQSPRRLIYKVSNRDSGVPDRFSGSGSGTDFALKISRVEAEDVGVYYCMQGTHWPVTFGQGTKVEIK

[0.001, "9.66e-05", 0.000407, 0.000207, 0.000487]

Below are 4 binders. Give each one its koff.
1. antibody 330 (antibody, V domains shown) VH: QVQLVESGGGVVQPGRSLRLSCAASGFTFSSYAMHWVRQAPGKGLEWVAVISYDGSNKYYADSVKGRFTISRDNSKNTLYLQMNSLRAEDTAVYYCARDFQYYDFWSGYLTVSSPTSYYGMDVWGQGTTVTVSS VL: NFMLTQPHSVSESPGKTVTISCTGSSGSIASNYVQWYQQRPGSAPTTVIYEDNQRPSGVPDRFSGSIDSSSNSASLTISGLKTEDEADYYCQSYDSSNVVFGGGTKLTVL
2. antibody 318 (antibody, V domains shown) VH: QVQLVESGGGVVPPGRSLSLPCAASGFSFSAYAMHWLRQAPGKGLEWVAVISYDGTVKYVADSVRGRFTISRDNSNNTLYLQMTSLRSDDTAVYYCARDLGALAAAPTVYFVHWGQGTLVTVSS VL: SYVLTQPPSVSVAPGKTATITCAGEDIGRKSVHWYQQKPGQAPVLVIFYYSDRPSGIPDRFSGSVSGNTATLTIGRVEAGDEADYFCQVWDRTTNHVIFGGGTKVTVL
3. antibody 291 (antibody, V domains shown) VH: QVQLVESGGGVVQPGRSLRLSCAASGFTFSSYAMHWVRQAPGKGLEWVAVISYDGSNKYYADSVKGRFTISRDNSKNTLYLQMNSLRAEDTAVYYCARASGGSYFGGMDVWGQGTTVTVSS VL: QSALTQPASVSGSPGQSITISCTGTSSDVGGYNYVSWYQQHPGKAPKLMIYEVSNRPSGVSNRFSGSKSGNTASLTISGLQAEDEADYYCSSYTSSSTLYVFGTGTKVTVL
4. antibody 368 (antibody, V domains shown) V domain 1: QITLKESGPTLVKPTETLTLTCAFSGFSLTKTGEAAGWIRQAPGRALEWVTVIFWDDDKRYSPSLQNRLTVTKDTSKNVVVLTMTNVDPVDTATYFCWAMGGPGKEFFGQGTRVAVSS V domain 2: QSVLTQPPSVSGAPGQRVTVSCTGTSSSIGPYSDVHWYQHIPGKAPRLLIFGTSNRPSGVPARFSGSKSGSSASLVIAGLQAEDEADYYCQSYDSSLGEIYVFGTGTTVTVL

1. 0.00073
2. 0.0017
3. 5.43e-05
4. 0.000486
